# Tested on: OVCAR-8
# assay: Cytotoxicity against human OVCAR8 cells assessed as growth inhibition at 10 uM
# Assay type: functional
# stated_conditions: read-out: GI
assay_metric: inhibition of growth at 10 µM (%)

- compound: "N#Cc1c(Cl)nc(SCC2CO2)nc1-c1ccccc1 (stereo not given)"
  observed_result: 48.4
- compound: "N#Cc1c(-c2ccccc2)nc(SCC(O)CN2CCOCC2)nc1N1CCOCC1 (stereo not given)"
  observed_result: 66.6
- compound: "Cn1c(N2CCOCC2)nc(-c2ccco2)c(C#N)c1=O"
  observed_result: 47.1
- compound: "Cn1c(N2CCN(Cc3ccccc3)CC2)nc(-c2ccccc2)c(C#N)c1=O"
  observed_result: 54.6
- compound: "Cn1c(N2CCCCC2)nc(-c2ccccc2)c(C#N)c1=O"
  observed_result: 42.4

----------
Each item that follows carries a reported inhibition of growth at 10 µM.
# Tested on: PC-3
# assay: Cytotoxicity against human PC3 cells assessed as growth inhibition at 10 uM
# Type: functional
# stated_conditions: read-out: GI

- compound: "N#Cc1c(-c2ccccc2)nc(SCC2CO2)nc1N1CCOCC1 (centres undefined)"
  inhibition of growth at 10 µM: "63.9%"
- compound: "N#Cc1c(-c2ccccc2)nc(SCC(O)CN2CCOCC2)nc1N1CCOCC1 (centres undefined)"
  inhibition of growth at 10 µM: "43.5%"
- compound: "N#Cc1c(N2CCOCC2)nc(=S)[nH]c1-c1ccco1"
  inhibition of growth at 10 µM: "57.4%"
- compound: "N#Cc1c(N2CCOCC2)nc(=S)[nH]c1-c1ccccc1"
  inhibition of growth at 10 µM: "53%"

----------
# Test system: HCC 2998
# assay: Cytotoxicity against human HCC2998 cells assessed as growth inhibition at 10 uM
# Format: functional
# stated_conditions: read-out: GI
assay_metric: inhibition of growth at 10 µM (%)

- smiles_notation: "Cn1c(NN)nc(-c2ccco2)c(C#N)c1=O"
  observed_result: 84.4
- smiles_notation: "N#Cc1c(-c2ccccc2)nc(SCC(=O)Nc2ccc(Cl)cc2)[nH]c1=O"
  observed_result: 84.4
- smiles_notation: "N#Cc1c(N2CCOCC2)nc(=S)[nH]c1-c1ccco1"
  observed_result: 121
- smiles_notation: "CSc1nc(-c2ccco2)c(C#N)c(=O)n1C"
  observed_result: 98.4
- smiles_notation: "CCN(CC)CCSc1nc(-c2ccccc2)c(C#N)c(=O)[nH]1"
  observed_result: 107
- smiles_notation: "N#Cc1c(N2CCN(Cc3ccccc3)CC2)nc(=S)[nH]c1-c1ccc([N+](=O)[O-])cc1"
  observed_result: 71.8

----------
# System: SF-295
# assay: Cytotoxicity against human SF295 cells assessed as growth inhibition at 10 uM
# Type: functional
# stated_conditions: read-out: GI
Reported values of inhibition of growth at 10 µM for individual entries

- molecule: "N#Cc1c(-c2ccccc2)nc(SCC(O)CN2CCOCC2)nc1N1CCOCC1 (centres undefined)"
  unit_tag: "%"
  inhibition of growth at 10 µM: 56.4
- molecule: "N#Cc1c(N2CCOCC2)nc(=S)[nH]c1-c1ccco1"
  unit_tag: "%"
  inhibition of growth at 10 µM: 52.6
- molecule: "N#Cc1c(N2CCOCC2)nc(=S)[nH]c1-c1ccccc1"
  unit_tag: "%"
  inhibition of growth at 10 µM: 45.5
- molecule: "N#Cc1c(-c2ccccc2)nc(SCC2CO2)nc1N1CCOCC1 (centres undefined)"
  unit_tag: "%"
  inhibition of growth at 10 µM: 90.9
